# Assay System: AgifOBP7 (Aphidius gifuensis, UniProt A0A3S9LWE5)
# Sequence (A0A3S9LWE5 entry or part of it): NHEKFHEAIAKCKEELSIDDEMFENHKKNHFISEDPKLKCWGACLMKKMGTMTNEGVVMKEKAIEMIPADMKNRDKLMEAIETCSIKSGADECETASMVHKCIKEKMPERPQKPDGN
# Protocol Description: Fluorescence competitive binding assay (1-NPN displacement) with recombinant AgifOBP7
# Cond: displacement of 1-NPN, 2 μM protein, Tris-HCl pH 7.4, room temperature; read-out: OBP7 IC50
# Protocol: Fluorescence intensity was recorded in a right angle configuration on a Lengguang 970CRT spectrofluorimeter (Shanghai Jingmi, China) at room temperature using a 1 cm light path fluorimeter quartz cuvette. […] The measured fluorescence intensities were corrected for both blank signals due to protein emission and scattered excitation light. […] Fluorescence binding experiments were conducted in […] Tris-HCl buffer, pH 7.4, at room temperature. […] Spectra were recorded with a high-speed scan. […]
Reported IC50 values for a set of molecules
Reported Endpoint: IC50

C=CC(=C)CC/C=C(\C)CCC=C(C)C [(E)-β-Farnesene] | > 30 µM
CC1=CCC2CC1C2(C)C (stereo not drawn) [(-)-α-Pinene] | > 30 µM
CC1=COC(=O)[C@H]2[C@@H]1CC[C@@H]2C | > 30 µM
C=C(C)C1CC=C(C)CC1 (single isomer, unassigned; (+)) [(+)-Limonene] | > 30 µM
C=C1CCC2CC1C2(C)C (stereo not drawn) [(-)-β-Pinene] | > 30 µM
